Reference for the values: PubChem BioAssay (NCATS)

# Assay Protocol: Quantitative High-Throughput drug screen in 47 multiple myeloma cell lines against the NCATS MIPE library collection: OPM1_PLB cell viability assay (AID 1918989); note: nearly all actives have a fitted effect of over 40% in size; note: potency is the fitted concentration of half-maximal effect
# Condition Context: CellTiter-Glo, 48 h; series mostly up to 45.8 µM
Records with an inconclusive call do not appear. Active and inactive are the calls of the source. Calls come from the whole dose curve; as a rule, active = well fitted cell-killing curve with a large enough effect; inconclusive = small, poorly fitted or top-dose-only effect, or effect the other way; inactive = no such curve, though single readings can be large or run the other way.

Molecule	Potency
CC(C)(C)c1cnc(CSc2cnc(NC(=O)C3CCNCC3)s2)o1	0.296 µM (active)
Cc1[nH]nc2ccc(-c3cncc(OC[C@@H](N)Cc4ccccc4)c3)cc12	2.35 µM (active)
CC1(C)OC2=C(C(=O)c3ccccc3C2=O)[C@H](NCc2ccccc2)[C@H]1O	2.35 µM (active)
CCCCOc1c(C(=O)c2c(F)cc(C)cc2F)cnc2n[nH]cc12	11.8 µM (active)
Cc1cn(-c2cc(NC(=O)c3ccc(C)c(Nc4nccc(-c5cccnc5)n4)c3)cc(C(F)(F)F)c2)cn1	inactive
CC(=O)c1c(C)c2cnc(Nc3ccc(N4CCNCC4)cn3)nc2n(C2CCCC2)c1=O	18.7 µM (active)
Nc1ccccc1NC(=O)c1ccc(CNC(=O)OCc2cccnc2)cc1	0.743 µM (active)
NC(=O)c1c(OCc2c(F)cc(Br)cc2F)nsc1NC(=O)NCCCCN1CCCC1	13.2 µM (active)
Cc1ccc(NC(=O)C2(c3ccc4c(c3)OC(F)(F)O4)CC2)nc1-c1cccc(C(=O)O)c1	0.148 µM (active)
CCN1CCN(Cc2ccc(-c3cc4c(N[C@H](C)c5ccccc5)ncnc4[nH]3)cc2)CC1	0.372 µM (active)
Cc1ccc(S(=O)(=O)Nc2cc(Cl)ccc2C(=O)Nc2nc(-c3ccccc3)cs2)cc1	4.69 µM (active)
COC(=O)Nc1ccc(-c2nc(N3CCOCC3)c3cnn(C4CCN(Cc5cccnc5)CC4)c3n2)cc1	0.0833 µM (active)
C[C@@]12O[C@@H](C[C@]1(O)CO)n1c3ccccc3c3c4c(c5c6ccccc6n2c5c31)CNC4=O	0.264 µM (active)
COc1ccc(C=Cc2cc(OC)c(OC)c(OC)c2)cc1O	inactive
Cc1[nH]c2ccccc2c1CCNCc1ccc(C=CC(=O)NO)cc1	0.0264 µM (active)
CC(C)c1cc(C(=O)N2Cc3ccc(CN4CCN(C)CC4)cc3C2)c(O)cc1O	0.118 µM (active)
Cn1cc(-c2[nH]c3cc(NC(=O)[C@H](N)C4CCCCC4)cc4c3c2C=NNC4=O)cn1	1.18 µM (active)
Cc1cc(N2CCOCC2)cc2[nH]c(-c3c(NC[C@@H](O)c4cccc(Cl)c4)cc[nH]c3=O)nc12	0.469 µM (active)
COc1cc(C(C)C)c2c(c1)S(=O)(=O)N(COc1cc(=O)n3cccc(OCCN4CCCCC4)c3n1)C2=O	23.5 µM (active)
COc1cc2ncn(-c3cc(OCc4ccccc4C(F)(F)F)c(C(N)=O)s3)c2cc1OC	0.743 µM (active)
CNC(=O)c1c(F)cccc1Nc1nc(Nc2cc3c(cc2OC)CCN3C(=O)CN(C)C)nc2[nH]ccc12	7.43 µM (active)
O=c1[nH]nc(Sc2ncc([N+](=O)[O-])s2)n1-c1ccc2c(c1)OCCO2	2.09 µM (active)
CCOc1ccccc1OCCNC(C)Cc1ccc(OC)c(S(N)(=O)=O)c1 (configuration not stated)	inactive
CCc1c2c(nc3ccc(O)cc13)-c1cc3c(c(=O)n1C2)COC(=O)[C@]3(O)CC	0.935 µM (active)
c1cc(-c2cnn3cc(-c4ccc(OCCN5CCCCC5)cc4)cnc23)ccn1	4.18 µM (active)
CN1CCN(c2cc(C(=O)Nc3ccc4c(c3)-c3c(c(C(N)=O)nn3-c3ccc(F)cc3)CC4)c(Cl)cn2)CC1	9.35 µM (active)
COc1cc(C(=O)N2CCC(N3CCN(C)CC3)CC2)ccc1Nc1ncc2c(n1)N(C)c1ccccc1C(=O)N2C	1.87 µM (active)
CN1c2cc(O)c(N=NC(N)=O)cc2CC1S(=O)(=O)O (configuration not stated)	inactive
COc1cc2nccc(Oc3ccc(NC(=O)C4(C(=O)Nc5ccc(F)cc5)CC4)cc3)c2cc1OC	23.5 µM (active)
Cc1ccc(C(=O)Nc2ccc(CN3CCN(C)CC3)c(C(F)(F)F)c2)cc1C#Cc1cnc2cccnn12	0.59 µM (active)
c1nc2nc(Nc3ccc(N4CCOCC4)cc3)nc(NC3CCCCC3)c2[nH]1	4.69 µM (active)
Fc1cc(-c2cccc3ncc(-c4cnn(C5CCNCC5)c4)nc23)cc(F)c1CN1CCOCC1	8.33 µM (active)
C1=CCOCc2cc(ccc2OCCN2CCCC2)Nc2nccc(n2)-c2cccc(c2)OCC1	3.32 µM (active)
C=C1C(=CC=C2CCCC3(C)[C@@H]([C@H](C)C=CC=CC(O)(CC)CC)CC[C@@H]23)C[C@@H](O)C[C@@H]1O (some centres not stated)	18.7 µM (active)
Cn1cncc1[C@@](N)(c1ccc(Cl)cc1)c1ccc2c(c1)c(-c1cccc(Cl)c1)cc(=O)n2C	16.6 µM (active)
COC(=O)c1ccc2c(C(=Nc3ccc(N(C)C(=O)CN4CCN(C)CC4)cc3)c3ccccc3)c(O)[nH]c2c1	2.09 µM (active)
Nc1ccc(C(=O)c2cc3c(ccc4ccccc43)[nH]2)cc1	7.43 µM (active)

----------
# Assay Protocol: qHTS of pediatric cancer cell lines to identify multiple opportunities for drug repurposing: Primary screen for Saos-2 cells (AID 1347097); note: nearly all actives have a fitted effect of over 40% in size
# Condition Context: Saos-2 viability, CellTiter-Glo ATP luminescence, 48 h; series mostly up to 46 µM
Results filed as inconclusive are left out. Calls of active or inactive are those of the source. The call rests on the fitted dose curve; in most records, active means well fitted cell-killing curve with a large enough effect; inconclusive means small, poorly fitted or top-dose-only effect; inactive means no such curve, though single readings can be large or run the other way.
Possible outcomes: active, inactive

Compound	Category
COCCOc1ccc2c(c1)ncn2-c1ccc2cccc(N3CCC(N)CC3)c2n1	active
Cc1cc(Nc2cc(N3CCN(C)CC3)nc(C=Cc3ccccc3)n2)n[nH]1	active
CN(C)Cc1c(C(=O)NCCOc2ccc(C(=O)NO)cc2)oc2ccccc12	active
COc1cc(C)c(Sc2cnc(NC(=O)c3ccc(CNC(C)C(C)C)cc3)s2)cc1C(=O)N1CCN(C(C)=O)CC1 (centres undefined)	inactive
CNc1nccc(-c2cccnc2Oc2cc(C(=O)Nc3cccc(C(F)(F)F)c3)ccc2C)n1	active
COc1cc2c(Oc3ccc4[nH]c(C)cc4c3F)ncnc2cc1OCCCN1CCCC1	active
O=C(O)c1ccc2c(c1)nc(Nc1cccc(Cl)c1)c1ccncc12	active
COc1cccc2c(NCc3ccccc3)nc(-n3c(N)nc4ccccc43)nc12	active
CCCCc1nc2cc(C=CC(=O)NO)ccc2n1CCN(CC)CC	active
O=C(O)C1(Cc2cccc(Nc3nccs3)n2)CCC(Oc2cccc(Cl)c2F)CC1 (centres undefined)	active
C[C@@H](Oc1cc(-c2cnn(C3CCNCC3)c2)cnc1N)c1c(Cl)ccc(F)c1Cl	active
Nc1ccccc1NC(=O)c1ccc(CNc2nccc(-c3cccnc3)n2)cc1	active
C[C@@H]1COC(Nc2ccc3ncnc(Nc4ccc(OCc5nccs5)c(Cl)c4)c3c2)=N1	active
Cc1cc(Nc2cc(CN3CCOCC3)c3nc(C)c(Cc4ccc(Cl)cc4F)n3n2)n[nH]1	active
COc1ccc(CC2SC(=O)NC2=O)cc1C(=O)NCc1ccc(C(F)(F)F)cc1 (centres undefined)	inactive
Cc1ccc2nc(NC(=O)CSc3nc4c(c(=O)n3-c3ccccc3)SCC4)sc2c1	active
Cc1cnc(Nc2ccc(F)cc2Cl)nc1-c1c[nH]c(C(=O)N[C@H](CO)c2cccc(Cl)c2)c1	active
Cn1cncc1[C@@](N)(c1ccc(Cl)cc1)c1ccc2c(c1)c(-c1cccc(Cl)c1)cc(=O)n2C	active
Cc1[nH]nc2ccc(-c3cncc(OC[C@@H](N)Cc4ccccc4)c3)cc12	active
O=C(O)CCCc1c[nH]c2ccccc12	inactive
CN[C@H]1CCc2cc(OC)c(OC)c(OC)c2-c2ccc(OC)c(=O)cc21	active
C=CC(=O)Nc1cc2c(Nc3ccc(F)c(Cl)c3)ncnc2cc1OCCCN1CCOCC1	active
CCOC(=O)C1=C(C)NC2=C(C(=O)CC(C)(C)C2)C1c1ccc(-c2ccccc2)cc1 (centres undefined)	active
Cc1ccc(-c2ncn(-c3ccc(Nc4nccc(-c5cccc(N6CCOCC6)c5)n4)cc3)n2)cn1	active
CNC(=O)c1ccc(-c2cnc3ncc(Cc4ccc5ncccc5c4)n3n2)cc1F	inactive
COc1ccc(C=Cc2cc(OC)c(OC)c(OC)c2)cc1O	active
COc1cc(C(=O)NS(=O)(=O)c2ccccc2C)ccc1Cc1cn(C)c2ccc(NC(=O)OC3CCCC3)cc12	active
COc1ccc(C(=O)CC2(O)C(=O)Nc3c(Cl)ccc(Cl)c32)cc1 (centres undefined)	active
COc1cc2ncn(-c3cc(OCc4ccccc4C(F)(F)F)c(C(N)=O)s3)c2cc1OC	active
COc1cc(OC2CCN(C)CC2)ccc1Nc1ncc2c(n1)n(C1CCCC1)c(=O)n2C	active
CC1(C)O[C@@H]2C[C@@H]3[C@H]4C[C@@H](F)C5=CC(=O)C=C[C@]5(C)[C@@]4(F)[C@@H](O)C[C@]3(C)[C@]2(C(=O)CO)O1	inactive
CN1CCN(c2ccc3nc(-c4c(N)c5c(F)cccc5[nH]c4=O)[nH]c3c2)CC1	active
O=C(CCCCCCNC(=O)c1cnc(N(c2ccccc2)c2ccccc2)nc1)NO	active
Nc1ncnc2c1c(-c1cnc3[nH]ccc3c1)nn2C1CCCC1	active
Cc1ccc(C(=O)Nc2ccc(CN3CCN(C)CC3)c(C(F)(F)F)c2)cc1C#Cc1cnc2cccnn12	active
O=C(O)[C@H](Cc1c[nH]c2ccccc12)N1C(=O)c2ccccc2C1=O	inactive
COc1cc(-c2nn(C3CCC(N4CCN(C(C)=O)CC4)CC3)c3ncnc(N)c23)ccc1NC(=O)c1cc2ccccc2n1C (centres undefined)	active
CC1(O)CC(c2nc(-c3ccc4ccc(-c5ccccc5)nc4c3)c3c(N)nccn23)C1 (centres undefined)	active
NC(=O)Nc1cc(-c2cccc(F)c2)sc1C(=O)N[C@H]1CCCNC1	active
